Test system: ZIKA
Test: Antiviral activity against ZIKA in HEK 293 cells
Type: cell-based
Conditions: Zika virus, HEK293, read-out: ZIKA (HEK 293 cells) VTR (virus titer reduction)
Quick list: log reduction at 10 µM per entry.
property: log reduction at 10 µM

compound="CC(C)COC(=O)[C@H](C)N[P@](=O)(OC[C@H]1O[C@@H](n2ncc(=O)[nH]c2=O)[C@H](O)[C@@H]1O)Oc1cccc2ccccc12 [Compound 8]" property="log reduction at 10 µM" value=1.6
compound="CCOC(=O)Nc1cnn([C@@H]2O[C@H](CO)[C@@H](O)[C@H]2O)c(=O)n1 [Compound 23]" property="log reduction at 10 µM" value=3
compound="COC(=O)[C@H](C)NP(=O)(OC[C@H]1O[C@@H](n2ncc(=O)[nH]c2=O)[C@H](O)[C@@H]1O)Oc1ccccc1 (mixture of isomers) [Compound 7]" property="log reduction at 10 µM" value=1.3

###

Assay: Cytotoxicity (CC50) in MDCK cells
Assay type: cell-based
Settings: dog, H1N1
property: CC50

compound="CC(C)[C@@H](N)C(=O)OC[C@H]1O[C@@H](n2ncc(=O)[nH]c2=O)C(O)[C@H]1O (some centres unmarked)" value="19.6 µM"
compound=N[C@@H](Cc1ccccc1)C(=O)OC[C@H]1O[C@@H](n2ncc(=O)[nH]c2=O)[C@H](O)[C@@H]1O value="> 20 µM"
compound="CC(C)OC(=O)[C@H](C)NP(=O)(OC[C@H]1O[C@@H](n2ncc(=O)[nH]c2=O)[C@H](O)[C@@H]1O)Oc1ccccc1 (mixture of isomers)" value="> 100 µM"
compound=O=C(Nc1cnn([C@@H]2O[C@H](CO)[C@@H](O)[C@H]2O)c(=O)n1)C1CCC1 value="19 µM"
compound=CCCCCCCCCCCCCCCCCC(=O)OC[C@H]1O[C@@H](n2ncc(=O)[nH]c2=O)[C@H](O)[C@@H]1O value="> 20 µM"
compound=CCCCCCCCCCCC(=O)Nc1cnn([C@@H]2O[C@H](CO)[C@@H](O)[C@H]2O)c(=O)n1 value="> 20 µM"
compound="CCOC(=O)[C@H](C)NP(=O)(OC[C@H]1O[C@@H](n2ncc(=O)[nH]c2=O)[C@H](O)[C@@H]1O)Oc1ccccc1 (mixture of isomers)" value="> 100 µM"
compound=CCCC(=O)Nc1cnn([C@@H]2O[C@H](CO)[C@@H](O)[C@H]2O)c(=O)n1 value="> 20 µM"
compound="COC(=O)[C@H](C)NP(=O)(OC[C@H]1O[C@@H](n2ncc(=O)[nH]c2=O)[C@H](O)[C@@H]1O)Oc1ccccc1 (mixture of isomers)" value="> 100 µM"
compound=O=C(Nc1cnn([C@@H]2O[C@H](CO)[C@@H](O)[C@H]2O)c(=O)n1)C1CC1 value="> 20 µM"
compound="CCOP(=O)(OCC)OC[C@H]1O[C@@H](n2ncc(=O)[nH]c2=O)C(O)C1O (some centres unmarked)" value="> 100 µM"
compound=CCOC(=O)Nc1cnn([C@@H]2O[C@H](CO)[C@@H](O)[C@H]2O)c(=O)n1 value="> 20 µM"
compound="C[C@H](NP(=O)(OC[C@H]1O[C@@H](n2ncc(=O)[nH]c2=O)[C@H](O)[C@@H]1O)Oc1ccccc1)C(=O)OCc1ccccc1 (mixture of isomers)" value="> 100 µM"
compound="C[C@H](NP(=O)(OC[C@H]1O[C@@H](n2ncc(=O)[nH]c2=O)[C@H](O)[C@@H]1O)Oc1ccccc1)C(=O)OCc1ccc([N+](=O)[O-])o1 (mixture of isomers)" value="> 100 µM"

###

Quick list: log reduction at 20 µM per entry.
Test system: H3N2 strain
Test: Antiviral activity against Influenza H3N2 strain in MDCK cells
Type: cell-based
Details: Influenza A virus, at 20 μM concentration, 4-6 hours pre-incubation, read-out: H3N2 strain (MDCK cells) VTR (virus titer reduction)
Procedure: The antiviral activity against Influenza viruses (H1N1 and H3N2 strains) evaluated in MDCK cells (4-6 hours pre-incubation with compound) shown in Table 5 below. VTR=Virus titer reduction in log at 20 μM concentration. NT: not tested, ND: not determined.
property: log reduction at 20 µM

molecule=O=C(Nc1cnn([C@@H]2O[C@H](CO)[C@@H](O)[C@H]2O)c(=O)n1)C1CCC1 value=3
molecule="C[C@H](NP(=O)(OC[C@H]1O[C@@H](n2ncc(=O)[nH]c2=O)[C@H](O)[C@@H]1O)Oc1ccccc1)C(=O)OCc1ccccc1 (mixture of isomers)" value=0.9
molecule=CC[C@H](C)[C@H](N)C(=O)OC[C@H]1O[C@@H](n2ncc(=O)[nH]c2=O)[C@H](O)[C@@H]1O value=3.4
molecule=CCOC(=O)Nc1cnn([C@@H]2O[C@H](CO)[C@@H](O)[C@H]2O)c(=O)n1 value=2
molecule=O=C(Nc1cnn([C@@H]2O[C@H](CO)[C@@H](O)[C@H]2O)c(=O)n1)C1CC1 value=3
molecule=CCCC(CCC)C(=O)Nc1cnn([C@@H]2O[C@H](CO)[C@@H](O)[C@H]2O)c(=O)n1 value=3.4
molecule=CC(C)C(=O)OC[C@H]1O[C@@H](n2ncc(=O)[nH]c2=O)[C@H](O)[C@@H]1O value=3.3

###

Experiment: Cytotoxicity (CC50) in MDCK cells
Assay type: cell-based
Conditions: dog, H1N1
property: CC50 (µM)

molecule=CCCC(CCC)C(=O)Nc1cnn([C@@H]2O[C@H](CO)[C@@H](O)[C@H]2O)c(=O)n1 unit_abbrev=µM result_operator== value=19.6
molecule=CC(C)COC(=O)[C@H](C)N[P@](=O)(OC[C@H]1O[C@@H](n2ncc(=O)[nH]c2=O)[C@H](O)[C@@H]1O)Oc1cccc2ccccc12 unit_abbrev=µM result_operator=> value=100
molecule="CC(C)COC(=O)[C@H](C)NP(=O)(OC[C@H]1O[C@@H](n2ncc(=O)[nH]c2=O)C(O)[C@H]1O)Oc1ccccc1 (stereo in doubt)" unit_abbrev=µM result_operator=> value=100
molecule=CC[C@H](C)[C@H](N)C(=O)OC[C@H]1O[C@@H](n2ncc(=O)[nH]c2=O)[C@H](O)[C@@H]1O unit_abbrev=µM result_operator== value=19.3
molecule=CC(C)C(=O)OC[C@H]1O[C@@H](n2ncc(=O)[nH]c2=O)[C@H](O)[C@@H]1O unit_abbrev=µM result_operator=> value=20

###

Tested on: ZIKA
Experiment: Antiviral activity against ZIKA in HEK 293 cells
Type: cell-based
Settings: Zika virus, HEK293, read-out: ZIKA (HEK 293 cells) VTR (virus titer reduction)
log reduction at 10 µM strictly under 3 means TRUE; at 3 or over means FALSE.

compound=CCCCCOC(=O)Nc1cnn([C@@H]2O[C@H](CO)[C@@H](O)[C@H]2O)c(=O)n1 system=ZIKA group=FALSE
compound="CC(C)COC(=O)[C@H](C)NP(=O)(OC[C@H]1O[C@@H](n2ncc(=O)[nH]c2=O)C(O)[C@H]1O)Oc1ccccc1 (stereo in doubt)" system=ZIKA group=TRUE
compound="CCC(CC)COC(=O)[C@H](C)NP(=O)(OC[C@H]1O[C@@H](n2ncc(=O)[nH]c2=O)[C@H](O)[C@@H]1O)Oc1ccccc1 (mixture of isomers)" system=ZIKA group=TRUE
compound=CCCC(=O)Nc1cnn([C@@H]2O[C@H](CO)[C@@H](O)[C@H]2O)c(=O)n1 system=ZIKA group=TRUE
compound=CCCC(CCC)C(=O)Nc1cnn([C@@H]2O[C@H](CO)[C@@H](O)[C@H]2O)c(=O)n1 system=ZIKA group=TRUE
compound="CC(C)[C@@H](N)C(=O)OC[C@H]1O[C@@H](n2ncc(=O)[nH]c2=O)C(O)[C@H]1O (stereo partly drawn)" system=ZIKA group=TRUE
compound=O=C(Nc1cnn([C@@H]2O[C@H](CO)[C@@H](O)[C@H]2O)c(=O)n1)C1CC1 system=ZIKA group=FALSE
compound=CCCCCCCCCCCC(=O)Nc1cnn([C@@H]2O[C@H](CO)[C@@H](O)[C@H]2O)c(=O)n1 system=ZIKA group=TRUE

###

Experiment: Cytotoxicity (CC50) in HEK293 cells
Type: cell-based
Details: human, WNV
CC50 strictly under 20 µM means TRUE; at 20 µM or over means FALSE.

molecule="CC(C)C(=O)OC[C@H]1O[C@@H](n2ncc(=O)[nH]c2=O)[C@H](O)[C@@H]1O [Compound 14]" group=FALSE
molecule="CC[C@H](C)[C@@H](N)C(=O)OC[C@H]1O[C@@H](n2ncc(=O)[nH]c2=O)C(O)C1O (stereo partly shown) [Compound 13]" group=TRUE
molecule="COC(=O)[C@H](C)NP(=O)(OC[C@H]1O[C@@H](n2ncc(=O)[nH]c2=O)[C@H](O)[C@@H]1O)Oc1ccccc1 (mixture of isomers) [Compound 7]" group=FALSE
molecule="CC[C@@H](C)[C@@H](N)C(=O)OC[C@H]1O[C@@H](n2ncc(=O)[nH]c2=O)[C@H](O)[C@@H]1O [Compound 12]" group=TRUE
molecule="C[C@H](NP(=O)(OC[C@H]1O[C@@H](n2ncc(=O)[nH]c2=O)[C@H](O)[C@@H]1O)Oc1ccccc1)C(=O)OCc1ccccc1 (mixture of isomers) [Compound 2]" group=FALSE
molecule="O=C(Nc1cnn([C@@H]2O[C@H](CO)[C@@H](O)[C@H]2O)c(=O)n1)C1CC1 [Compound 21]" group=TRUE

Reference source for all entries: patent US11858956B2
